Each entry below lists one item and its recorded %Inh value.
tested on: DRAK1; construct: gene STK17A; settings: concentration: 1 μM, replicates: in singlicate; n = 1;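 note: KINOMEscan kinase panel screen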
Form entry: enter the amount, then its unit.

Field: example entries. Status: answers known.
COc1cccc(NC(=O)Nc2ccc(C)c(-c3ccc(C(=O)Nc4ccncc4)cc3)c2)c1
0%
CCn1c(-c2ccccc2)nc2cnccc21
32%
CS(=O)(=O)CCNCc1nc(-c2ccc3ncnc(Nc4ccc(OCc5ccccc5)c(Cl)c4)c3c2)cs1.Cl
4%
CN1c2ccc(-c3ccc(C(N)=O)cc3)cc2-c2[nH]ncc2S1(=O)=O
52%

Here is the next item to consider.
# input molecule: `O=C(Nc1n[nH]c2nc(-c3cccs3)c(Br)cc12)C1CCCC1` ; wanted: its %Inh
# output 9%

###

system: KIT-autoinhibited; settings: concentration: 1 μM, replicates: in singlicate; n = 1
%Inh strictly less than 10% = True. Otherwise False.

Cl.Cl.Cl.N#Cc1ccc(CCNc2nccc(-c3cccc(CN4CCNCC4)c3)n2)cc1
True
Cc1nccc(-c2c(-c3ccc(F)cc3)ncn2CCCN2CCOCC2)n1.Cl
True
COc1ccc(Nc2nccc(N3CCC(NC(=O)c4cc5ccccc5s4)C3)n2)cc1 (stereo not drawn)
True

# input I wonder whether `O=c1cc(N2CCOCC2)nc2n(Cc3cccc(Cl)c3Cl)c3ccccc3n12` has %Inh below 10%. Can you tell?
# output True

# input Please let me know if `Cc1cnc(N)c(/C=C/c2cncc(C(=O)NCCc3ccc(Cl)cc3Cl)c2)c1.Cl` shows %Inh below 10%.
# output True

# input Dear colleague, could you confirm whether %Inh of `O=C(Nc1n[nH]c2nc(-c3cccs3)c(Br)cc12)C1CCCC1` falls below 10%? Thanks.
# output False

# input Decide: %Inh of `CS(=O)(=O)CCNCc1nc(-c2ccc3ncnc(Nc4ccc(OCc5ccccc5)c(Cl)c4)c3c2)cs1.Cl` strictly below 10%?
# output True

# input Confirm or reject: %Inh of `CN1c2ccc(-c3ccc(C(N)=O)cc3)cc2-c2[nH]ncc2S1(=O)=O` lies strictly below 10%
# output False

# input Strictly below 10%: is that where %Inh of `Cn1cnc2c(N)ncnc21` sits?
# output False

###

# Lookup of reported %Inh keyed by entry
system: PRKCE; details: concentration: 1 μM, replicates: in singlicate; n = 1
Entry rule: numbers only, all in %.

Sample answers from the record:
Cc1cccc2c(-c3ccncn3)c(-c3ccc(F)cc3)nn12
0
O=C(Nc1n[nH]c2nc(-c3cccs3)c(Br)cc12)C1CC1
19
COc1cccc(NC(=O)Nc2ccc(C)c(-c3ccc(C(=O)Nc4ccncc4)cc3)c2)c1
0
COc1ccc(Nc2nccc(N3CCC(NC(=O)C(C)c4ccc(Cl)cc4)CC3)n2)cc1 (centres unmarked)
1
COc1ccc(-c2coc3ccc(-c4nnc(C)o4)cc23)cc1
2
CCn1c(-c2c(N)noc2C)nc2cnccc21
0
Cn1cncc1C(=O)NC1CCN(c2ccnc(Nc3ccc(F)cc3)n2)C1 (centres unmarked)
0

Now look at this entry.
# input Find the recorded %Inh belonging to COC(=O)C(Cc1ccccc1)NC(=O)NC1CCN(c2ccnc(Nc3ccc(F)cc3)n2)C1 (centres unmarked) and report it.
# output 20

###

The molecules listed here are annotated with their %Inh.
tested on: TNIK; conditions: concentration: 1 μM, replicates: in singlicate; n = 1
Reply numerically in %, unit not repeated.

Below, each entry is followed by its recorded %Inh result.
Cl.Cl.Cl.N#Cc1ccc(CCNc2nccc(-c3cccc(CN4CCNCC4)c3)n2)cc1
3
CN1c2ccc(-c3ccc(C(N)=O)cc3)cc2-c2[nH]ncc2S1(=O)=O
45
CNc1nc(-c2ccc3c(N)n[nH]c3c2)cc(N2C[C@@H](C(=O)Nc3ccccc3)CC[C@H]2C)n1
0
NS(=O)(=O)c1cccc(N/C=C2\C(=O)Nc3ccc(S(=O)(=O)Cc4c(Cl)cccc4Cl)cc32)c1
91.8
O=c1cc(N2CCOCC2)nc2n(Cc3ccccc3F)ccn12
0

# input // lookup %Inh | system=TNIK | key= `CNC(=O)c1ccc(C)c(-n2c(C)cc(OCc3ccc(F)cc3F)c(Br)c2=O)c1`
# output 0

# input Form: Entry = COC(=O)C(Cc1ccccc1)NC(=O)NC1CCN(c2ccnc(Nc3ccc(F)cc3)n2)C1 (stereo not drawn) | System = TNIK | %Inh = ____
# output 6

# input Form field - read-out: %Inh; system: TNIK; submitted item: `CCCCc1nn2ncccc2c1-c1ccnc(NC2CC2)n1`
# output 0

# input Give the reported %Inh for `CNc1cc(-c2ccc3c(N)n[nH]c3c2)nc(N)n1` (system: TNIK).
# output 8

# input Given the entry `CC(=O)c1c(C)c2cnc(Nc3ccc(N4CCNCC4)cn3)nc2n(C2CCCC2)c1=O` , what %Inh was observed with TNIK?
# output 0

# input Recorded %Inh for `CCn1c(-c2ccccc2)nc2cnccc21` with TNIK, please?
# output 0

# input For TNIK, provide %Inh of `CS(=O)(=O)Cc1ccc(Nc2nccc(-c3c(-c4cccc(NC(=O)C5CCCCC5)c4)nn4ncccc34)n2)cc1` please.
# output 0

###

test system: RIOK1; details: concentration: 1 μM, replicates: in singlicate; n = 1
Below: a set of entries, each annotated with reported %Inh.
Give the quantity in %, number only.

Examples from the recorded data:
Fc1ccc(-c2nn3cccc(F)c3c2-c2ccncc2)cc1 [GW475620]
30
COc1cc2ncnc(Nc3cccc(Br)c3)c2cc1OC.Cl [GI230329]
29

# input Entry COC(=O)c1cccc(NC(=O)NC2CCN(c3ccnc(Nc4ccc(F)cc4)n3)C2)c1 (stereo not drawn) [GSK1379725] has what %Inh?
# output 10

# input Consider the compound shown here: c1ccc(-c2ccnc3[nH]ccc23)cc1 [SB-693578] What is its recorded %Inh?
# output 14

# input Fill in the blank: the reported %Inh of CSc1ccc(-c2nc3n(c2-c2ccncc2)CCC3)cc1 [SKF-105561] is ____.
# output 0

# input Which value of %Inh has been reported for O=c1cc(N2CCOCC2)nc2n(Cc3cccc(Cl)c3Cl)c3ccccc3n12 [GSK2299009] in the records?
# output 42

# input Which %Inh is listed for Cn1cncc1-c1cc2c(Nc3ccc(OCc4ccccc4)cc3)ncnc2cn1 [GW281179] ?
# output 27

# input // %Inh lookup, key: Cc1ccc(NC(=O)Nc2ccccc2F)cc1-c1ccc(C(=O)Nc2ccncc2)cc1 [GSK1398477]
# output 44

# input Item Cc1c(Cn2c(C)c(C)n3c(=O)cc(N4CCOCC4)nc23)cccc1C(F)(F)F [GSK2328680] has what recorded %Inh?
# output 11

###

Measured %Inh of individual entries
tested on: PRKD1; conditions: concentration: 1 μM, replicates: in singlicate; n = 1
Numeric answer only, unit % assumed.

Use the examples below as a reference point.
Cc1ccc(NC(=O)Nc2ccccc2F)cc1-c1ccc(C(=O)Nc2ccncc2)cc1
0
CNc1cc(-c2ccc3c(N)n[nH]c3c2)nc(N)n1
0
Cc1nccc(-c2c(-c3ccc(F)cc3)ncn2CCCN2CCOCC2)n1.Cl
25
COc1cccc(NC(=O)Nc2ccc(C)c(-c3ccc(C(=O)Nc4ccncc4)cc3)c2)c1
6
COc1cccc(C2=C(Nc3cc(Cl)c(O)c(Cl)c3)C(=O)NC2=O)c1
0

Attention now turns to another entry.
# input Consider the compound shown here: `CCCCc1nn2ncccc2c1-c1ccnc(NC2CC2)n1` What is its recorded %Inh?
# output 0

###

tested on: CASK; conditions: concentration: 1 μM, replicates: in singlicate; n = 1
Readout Name: %Inh (%)
Give the value, in units of %, as a plain number.

Example entries begin here.
COc1ccc(Nc2nccc(NCCNC(=O)Nc3cc(C)ccc3C)n2)cc1
0
O=C(Nc1n[nH]c2nc(-c3ccco3)c(Br)cc12)C1CCN(Cc2ccccc2)C1.O=C(O)[C@H](O)[C@@H](O)C(=O)O (stereo not drawn)
40
Cc1ccc(NC(=O)Nc2ccc(Cl)cc2)cc1-c1ccc(C(=O)Nc2ccncc2)cc1
21
COc1ccc(-c2coc3ccc(-c4nnc(C)o4)cc23)cc1
0
Fc1ccc(-c2nc[nH]c2-c2ccncc2)cc1
13
COc1nccc(-c2c(-c3ccc(F)cc3)ncn2CCCN2CCOCC2)n1
8

# input Given `Cc1ccc(-c2nc(Nc3ccncc3)c3ccccc3n2)s1` , state its recorded %Inh.
# output 0

# input For `c1ccc(-c2ccnc3[nH]ccc23)cc1` , what is its reported %Inh?
# output 26

# input Return reported %Inh; argument: `CS(=O)(=O)CCNCc1nc(-c2ccc3ncnc(Nc4ccc(OCc5ccccc5)c(Cl)c4)c3c2)cs1.Cl`
# output 5

# input Could you share which %Inh value was measured for `Nc1nccc(-c2c(-c3ccc(F)cc3)ncn2C2CCN(Cc3ccccc3)CC2)n1` ?
# output 0

###

test system: RPS6KA5(Kin.Dom.1-N-terminal); conditions: concentration: 1 μM, replicates: in singlicate; n = 1
// boundary case: %Inh equal to 20% maps to NO; strictly smaller maps to YES

Cc1ccc(-c2nc(Nc3ccncc3)c3ccccc3n2)s1 [GSK189015]
NO

# input Does the reported %Inh of the following molecule sit strictly below 20%? Nc1nccc(-c2c(-c3ccc(F)cc3)ncn2C2CCN(Cc3ccccc3)CC2)n1 [SB-219980]
# output YES

# input Does this molecule meet the criterion %Inh < 20%? Cc1cccc2c(-c3ccncn3)c(-c3ccc(F)cc3)nn12 [GW515532]
# output NO

# input # strict comparison: is reported %Inh < 20%? input = Cc1nccc(-c2c(-c3ccc(F)cc3)ncn2CCCN2CCOCC2)n1.Cl [SB-282975]
# output YES

# input Check if %Inh falls below 20% for O=c1cc(N2CCOCC2)nc2n(Cc3cccc(Cl)c3Cl)c3ccccc3n12 [GSK2299009] .
# output YES

# input Item Cc1c(Cn2c(C)c(C)n3c(=O)cc(N4CCOCC4)nc23)cccc1C(F)(F)F [GSK2328680] : %Inh beneath 20%, strictly?
# output YES

# input Below 20% on %Inh? Entry Cn1cncc1-c1cc2c(Nc3ccc(OCc4ccccc4)cc3)ncnc2cn1 [GW281179]
# output YES

# input Answer whether the molecule CS(=O)(=O)CCNCc1nc(-c2ccc3ncnc(Nc4ccc5c(cnn5Cc5ccccc5)c4)c3c2)cs1.Cl.Cl [GW569716] has %Inh strictly less than 20%
# output YES

# input State whether 20% exceeds %Inh recorded for Cl.Cl.Cl.N#Cc1ccc(CCNc2nccc(-c3cccc(CN4CCNCC4)c3)n2)cc1 [GSK2137462] .
# output YES
